# Experiment description: Hepatic microsomal stability, HLM
# Type: in vitro ADME, human
# Test conditions: In vitro human liver microsomal stability
Rule: t_half of 10 min or more gives condition met; anything lower gives condition not met.

## Input Item CNC(=O)c1c[nH]c2ncnc(N[C@H](c3ccc4c(c3)NC(=O)CO4)C(C)C)c12 (racemic) [ASAP-0008637] with t_half of 10 min or above?
## Output condition met

## Input Item CC(C)[C@@H](Nc1ncnc2[nH]cc(C(=O)NC3CC3)c12)c1ccc2c(c1)S(=O)(=O)CCC2 [ASAP-0011207] with t_half of 10 min or above?
## Output condition not met

## Input Item CNC(=O)c1cc2c(N[C@@H](c3ccc4c(c3)NC(=O)CO4)C(C)C)ncnc2[nH]1 [ASAP-0011219] with t_half of 10 min or above?
## Output condition not met

## Input Item CC(C)[C@@H](Nc1ncnc2[nH]c(-c3cncc(S(C)(=O)=O)c3)cc12)c1ccc2c(c1)S(=O)(=O)CCC2 [ASAP-0012320] with t_half of 10 min or above?
## Output condition not met

## Input Item CC(C)[C@H](Nc1ncnc(N)c1Cl)c1ccc2c(c1)S(=O)(=O)CCC2 (racemic) [ASAP-0010739] with t_half of 10 min or above?
## Output condition met

## Input Item CC(C)(C)[C@H](Nc1ncnc2[nH]c(-c3cnn(CC(N)=O)c3)cc12)c1ccc2c(n1)OCCO2 (single isomer, unassigned) [ASAP-0011159] with t_half of 10 min or above?
## Output condition met

## Input Item CCNC(=O)c1cc2c(N[C@@H](c3ccc4c(c3)S(=O)(=O)NCC4)C(C)C)ncnc2[nH]1 [ASAP-0011076] with t_half of 10 min or above?
## Output condition met

## Input Item COc1ccc2c(c1)CCN(c1ncnc3[nH]ccc13)[C@H]2C(C)C (racemic) [ASAP-0000502] with t_half of 10 min or above?
## Output condition met

## Input Item Cc1nn(C)cc1-c1cc2c(NC(c3ccc4c(c3)S(=O)(=O)CCC4)C(C)C)ncnc2[nH]1 (centres unmarked) [ASAP-0011446] with t_half of 10 min or above?
## Output condition not met

## Input Item CC(C)[C@@H](Nc1ncnc2[nH]c(-c3cnn(CC(=O)N(C)C)c3)cc12)c1ccc2c(c1)S(=O)(=O)CCC2 [ASAP-0013747] with t_half of 10 min or above?
## Output condition not met

## Input Item CC(C)[C@@H](Nc1ncnc2[nH]c(-c3cnn(CC(=O)N(C)C)c3)cc12)c1ccc2c(c1)OCCO2 [ASAP-0008485] with t_half of 10 min or above?
## Output condition met

## Input Item CNC(=O)c1cccc(-c2cc3c(N[C@@H](c4ccc5c(c4)S(=O)(=O)CCC5)C(C)C)ncnc3[nH]2)c1 [ASAP-0012344] with t_half of 10 min or above?
## Output condition not met

## Input Item CC(C)[C@@H](Nc1ncnc2[nH]c(-c3cnn(C)c3C#N)cc12)c1ccc2c(c1)OCCO2 [ASAP-0011033] with t_half of 10 min or above?
## Output condition met

* * *

# Experiment description: In vitro rat hepatocyte stability
# Assay type: in vitro ADME
# Test conditions: rat, hepatocytes
Value kind: hepatocyte CLint
Enter the number, and then the unit.

The reported value for CC(C)C(Nc1ncnc2[nH]c(C(=O)NC3CCN(C)C3)cc12)c1ccc2c(c1)S(=O)(=O)CCC2 (stereo not shown) [ASAP-0011198] in terms of hepatocyte CLint is 4.78 µL/min/1e6 cells
